Data provenance: ChEMBL document CHEMBL3585260

# experimental_system: Growth hormone secretagogue receptor type 1 (Homo sapiens, UniProt Q92847)
# Sequence (Q92847 whole entry): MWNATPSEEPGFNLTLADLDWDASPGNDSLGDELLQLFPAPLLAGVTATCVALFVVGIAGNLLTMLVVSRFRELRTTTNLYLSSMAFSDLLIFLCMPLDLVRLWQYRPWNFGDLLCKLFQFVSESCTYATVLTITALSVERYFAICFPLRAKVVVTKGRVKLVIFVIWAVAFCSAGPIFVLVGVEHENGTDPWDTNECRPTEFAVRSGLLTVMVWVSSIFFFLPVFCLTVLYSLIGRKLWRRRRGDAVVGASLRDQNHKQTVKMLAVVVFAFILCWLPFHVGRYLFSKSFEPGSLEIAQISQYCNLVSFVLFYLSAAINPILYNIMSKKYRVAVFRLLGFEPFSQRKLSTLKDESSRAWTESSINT
# test_method_notes: Binding affinity to ghrelin receptor (unknown origin)
quantity_kind: log10 IC50 (log10 of the value in nM)
Note: values are log10 of IC50 expressed in nM.

Completed entries (count: 5):
CCCn1cc(-c2cnc(NCc3ccc4occc4c3)c(C(=O)NCC3COc4ccccc4O3)c2)cn1 (stereo unspecified) :: 2.18
CCCn1cc(-c2cnc(NCc3ccc4c(c3)OCC4)c(C(=O)NCC3COc4ccccc4O3)c2)cn1 (racemic) :: 1.04
CC(=O)N1[C@@H]2CC[C@H]1C=C(c1cnc(NCc3ccc4c(c3)OCC4)c(C(=O)NC[C@H]3COc4ccccc4O3)c1)C2 (mixture of isomers) :: -0.02
CCn1cc(-c2cnc(NCc3ccc4c(c3)OCO4)c(C(=O)NC[C@@H]3COc4ccccc4O3)c2)cn1 :: 2.26
CC(=O)N1CC=C(c2cnc(NCc3ccc4c(c3)OCO4)c(C(=O)NC[C@H]3COc4ccccc4O3)c2)CC1 :: 1.62

Lab note: next compound to report on.
## Input # get_value(readout= log10 IC50, system= Growth hormone secretagogue receptor type 1 (Homo sapiens, UniProt Q92847)) for O=C(NC[C@H]1COc2ccccc2O1)c1cc(N2C[C@H]3CC[C@@H](C2)O3)cnc1NCc1ccc2c(c1)OCO2
## Output 0.73

###

# experimental_system: Growth hormone secretagogue receptor type 1 (Rattus norvegicus)
# Sequence (O08725 whole entry): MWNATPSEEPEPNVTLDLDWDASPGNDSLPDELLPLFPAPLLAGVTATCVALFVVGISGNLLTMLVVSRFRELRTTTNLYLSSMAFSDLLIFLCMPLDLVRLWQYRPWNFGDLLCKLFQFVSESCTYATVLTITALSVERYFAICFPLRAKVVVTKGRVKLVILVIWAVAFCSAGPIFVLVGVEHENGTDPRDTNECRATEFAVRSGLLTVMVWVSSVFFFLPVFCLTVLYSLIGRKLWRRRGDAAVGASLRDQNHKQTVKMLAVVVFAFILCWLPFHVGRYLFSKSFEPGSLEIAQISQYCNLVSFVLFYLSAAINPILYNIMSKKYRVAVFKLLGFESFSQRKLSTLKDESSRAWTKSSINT
# test_method_notes: Inverse agonist activity at rat ghrelin receptor expressed in HEK293 cells by inositol phosphate turnover assay
# Assay type: functional, cell-based
quantity_kind: IC50 (nM)
Give bare numbers, in nM.

## Input Consider the substance H-RPKPFQWFWLL-NH2 and give its measured IC50.
## Output 146

###

# experimental_system: Growth hormone secretagogue receptor type 1 (Rattus norvegicus)
# test_method_notes: Inverse agonist activity at rat ghrelin receptor expressed in HEK293 cells assessed as blockade of constitutive receptor activity b by NFAT-RE-luciferase reporter gene assay
# Type: cell-based
quantity_kind: Efficacy

Completed entries (count: 3):
CCn1cc(-c2cnc(NCc3ccc4c(c3)OCO4)c(C(=O)NC[C@@H]3COc4ccccc4O3)c2)cn1 :: > 95%
CCCn1cc(-c2cnc(NCc3ccc4c(c3)OCC4)c(C(=O)NCC3COc4ccccc4O3)c2)cn1 (racemic) :: > 95%
CCn1cc(-c2cnc(NCc3ccc4c(c3)OCO4)c(C(=O)NC[C@H]3COc4ccccc4O3)c2)cn1 :: > 95%

Value sought for every listed molecule: Efficacy.
1. O=C(NC[C@H]1COc2ccccc2O1)c1cc(N2C[C@H]3CC[C@@H](C2)O3)cnc1NCc1ccc2c(c1)OCO2
2. CC(=O)N1[C@@H]2CC[C@H]1C=C(c1cnc(NCc3ccc4c(c3)OCC4)c(C(=O)NC[C@H]3COc4ccccc4O3)c1)C2 (mixture of isomers)
3. CCCn1cc(-c2cnc(NCc3ccc4sccc4c3)c(C(=O)NCC3COc4ccccc4O3)c2)cn1 (racemic)
4. CCCn1cc(-c2cnc(NCc3ccc4occc4c3)c(C(=O)NCC3COc4ccccc4O3)c2)cn1 (configuration not stated)

## Output
1: > 95%; 2: > 95%; 3: > 95%; 4: > 95%

###

# experimental_system: Growth hormone secretagogue receptor type 1 (Rattus norvegicus)
# test_method_notes: Inverse agonist activity at rat ghrelin receptor expressed in HEK293 cells by NFAT-RE-luciferase reporter gene assay
# Type: cell-based
quantity_kind: IC50 (nM)
Answers are plain numbers, in nM.

## Input Consider the substance H-RPKPFQWFWLL-NH2 and give its measured IC50.
## Output 250
